# PROCEDURE SUMMARY: NCI Yeast Anticancer Drug Screen. Data for the bub3 strain (AID 167)
# CONDITION SUMMARY: S. cerevisiae bub3 mutant strain, at 50.0 µM, hits give high values
The panel holds about 79,000 compounds, 15% with a hit somewhere; the sample as a whole holds those more often.
READOUT TYPE: growth inhibition (%)

CC(=O)Nc1nnc(SCc2ccccc2)s1	3.4
CCCCCCCCCCCCCCCCN=C1C=Cc2ccccc2C1=NCCCCCCCCCCCCCCCC	5.95
NC(=O)c1ncn(C2OC(CO)C(O)C2O)c1NC=O (centres undefined)	9.85
CCOC(=O)COc1cc(C)c2ccc(=O)oc2c1	6.4
CCC(CC)NCCCNc1cc(OC)cc2cccnc12	30.9
Cc1cc2c(cc1C)N1C(Cl)=C3CCCCC3=C(C#N)C1N2 (centres undefined)	13.9
Cc1cccc(Nc2c(C(=O)O)cnc3cc4c(cc23)OCO4)c1	-5.85
c1ccc(C2OCC(OC3CCCCO3)CO2)cc1 (centres undefined)	-9.45
Cc1cc(C)nc(NS(=O)(=O)c2ccc(Nc3c4ccccc4nc4c(C(=O)Nc5ccc(S(=O)(=O)N=C(N)N)cc5)cccc34)cc2)n1	19.6
CCCC1(C)OCC(C)(C)CO1	3.85
O=C1/C(=C\C=C\c2ccccc2)CCC/C1=C/C=C/c1ccccc1	34
O=C(c1ccccc1)N1OCCC1Nc1ccc(Br)cc1 (centres undefined)	-15
CCN(CC)[Si](C)(C)N(CC)CC	-4.5
Cc1nn(-c2ccc([N+](=O)[O-])cc2)c2c1C(C)(C)C(C#N)=C(N)O2	0.65
CSCCNC(=O)CS(=O)(=O)c1ccc(N)cc1	-2.35
CCC(=O)C(C)C(=O)CCC(=O)Nc1cc(Cl)ccc1Cl (centres undefined)	18.1
Nc1c(Br)cc(Br)c2c1CCC2	8.8
CC(C)(C)c1cc[n+](C[n+]2ccc(C(C)(C)C)cc2)cc1	-22.9
CCN(CC)CCOC(=O)c1ccc(NC(=O)OCCC(C)(C)CCOC(=O)Nc2ccc(C(=O)OCCN(CC)CC)cc2)cc1	8.25
CC1(C)CC(OP(=O)(c2ccccc2)c2ccccc2)CC(C)(C)N1O	13.3
CCCC12C=C(OC)C(=O)C=C1OC(c1cc(OC)c(OC)c(OC)c1)C2C (centres undefined)	-6.8
CCCCCCCCCCCCCCCCOc1ccccn1	-21.6
O=C(Cc1ccccc1)N(C(=O)c1ccccc1)c1ccccc1	24.1
CN=Cc1c(O)ccc2ccccc12.[Cu+2]	-32.9
